- Assay Protocol: Ring stability to hydrolysis, UV absorption changes with time
- Format: physicochemical
- Measurement Context: 16 hr; equal volumes methanol-aqueous phosphate buffer (pH 8); read-out: % Compound Remaining after 16 hr
- Procedure: Solutions of these compounds were prepared using equal volumes of methanol-aqueous phosphate buffer (pH 8), and decomposition by cleavage of the heterocyclic ring was monitored using ultraviolet absorption changes with time.
# Lookup of reported remaining at 16 h keyed by entry

Compound | remaining at 16 h
CCCCCCn1snc(C)c1=O | 100%
CCCc1nsn(Cc2ccccc2)c1=O | 100%
O=c1c(Cl)nsn1Cc1ccccc1 [reference compound] | 6%
Cc1nsn(Cc2ccc(Cl)cc2)c1=O [drawing 23] | 100%
O=c1c(Cl)nsn1Cc1ccc(Cl)cc1 [reference compound] | 0%
O=c1cnsn1Cc1ccccc1 | 96%
